Assign inhibition at 10 µM to each entry below.
- assay_system: BTK (Homo sapiens, UniProt Q06187)
- Sequence (Q06187 402-655 limits assumed): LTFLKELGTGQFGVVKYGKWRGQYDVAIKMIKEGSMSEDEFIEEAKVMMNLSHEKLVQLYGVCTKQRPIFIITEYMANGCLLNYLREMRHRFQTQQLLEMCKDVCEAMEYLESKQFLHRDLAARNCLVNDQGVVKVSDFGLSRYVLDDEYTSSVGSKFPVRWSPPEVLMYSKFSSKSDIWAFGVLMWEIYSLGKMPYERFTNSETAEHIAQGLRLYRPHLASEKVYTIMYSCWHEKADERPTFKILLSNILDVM
- experiment_summary: biochemical
- assay_context: read-out: BTK inhibition (%), 0.75 uM BTK, […] probe 3l, 15 min preincubation
Give bare numbers, in %.

Guide cases for inhibition at 10 µM, answers given:
- compound: "CCc1c2c(nc3ccccc13)-c1cc3c(c(=O)n1C2)COC(=O)[C@]3(O)CC [PCM-0215967]"
  unit_label: "%"
  inhibition at 10 µM: -20.8
- compound: "CNC(=O)c1ccccc1Nc1cc(Nc2ccc(N3CCOCC3)cc2OC)ncc1C(F)(F)F [PCM-0215412]"
  unit_label: "%"
  inhibition at 10 µM: 63.4
- compound: "N=C1CCCN1Cc1[nH]c(=O)[nH]c(=O)c1Cl [PCM-0214897]"
  unit_label: "%"
  inhibition at 10 µM: -10.1

# batch: return inhibition at 10 µM for each of the 5 compounds below
1. CC(C)=CCC[C@](C)(O[C@@H]1O[C@H](CO[C@@H]2OC[C@@H](O)[C@H](O)[C@H]2O)[C@@H](O)[C@H](O)[C@H]1O)[C@H]1CC[C@]2(C)[C@@H]1[C@H](O)C[C@@H]1[C@@]3(C)CC[C@H](O[C@@H]4O[C@H](CO)[C@@H](O)[C@H](O)[C@H]4O)C(C)(C)[C@@H]3CC[C@]12C [PCM-0214676]
2. O=c1cc(-c2ccc(O[C@@H]3O[C@H](CO)[C@@H](O)[C@H](O)[C@H]3O)cc2)oc2cc(O)c([C@@H]3O[C@H](CO)[C@@H](O)[C@H](O)[C@H]3O[C@@H]3OC[C@H](O)[C@H](O)[C@H]3O)c(O)c12 [PCM-0216482]
3. O=C(O)/C=C/C(=O)O [PCM-0064603]
4. Nc1nonc1C(=Nc1ccc(F)c(Cl)c1)NO [PCM-0095795]
5. O=c1cc(-c2ccccc2)oc2c1ccc1ccccc12 [PCM-0216134]

## Result
35.8
-22.4
-7.7
-3.1
-0.8
